# systemUnderTest: Non-receptor tyrosine-protein kinase TYK2 (Homo sapiens)
# Sequence (P29597 whole entry): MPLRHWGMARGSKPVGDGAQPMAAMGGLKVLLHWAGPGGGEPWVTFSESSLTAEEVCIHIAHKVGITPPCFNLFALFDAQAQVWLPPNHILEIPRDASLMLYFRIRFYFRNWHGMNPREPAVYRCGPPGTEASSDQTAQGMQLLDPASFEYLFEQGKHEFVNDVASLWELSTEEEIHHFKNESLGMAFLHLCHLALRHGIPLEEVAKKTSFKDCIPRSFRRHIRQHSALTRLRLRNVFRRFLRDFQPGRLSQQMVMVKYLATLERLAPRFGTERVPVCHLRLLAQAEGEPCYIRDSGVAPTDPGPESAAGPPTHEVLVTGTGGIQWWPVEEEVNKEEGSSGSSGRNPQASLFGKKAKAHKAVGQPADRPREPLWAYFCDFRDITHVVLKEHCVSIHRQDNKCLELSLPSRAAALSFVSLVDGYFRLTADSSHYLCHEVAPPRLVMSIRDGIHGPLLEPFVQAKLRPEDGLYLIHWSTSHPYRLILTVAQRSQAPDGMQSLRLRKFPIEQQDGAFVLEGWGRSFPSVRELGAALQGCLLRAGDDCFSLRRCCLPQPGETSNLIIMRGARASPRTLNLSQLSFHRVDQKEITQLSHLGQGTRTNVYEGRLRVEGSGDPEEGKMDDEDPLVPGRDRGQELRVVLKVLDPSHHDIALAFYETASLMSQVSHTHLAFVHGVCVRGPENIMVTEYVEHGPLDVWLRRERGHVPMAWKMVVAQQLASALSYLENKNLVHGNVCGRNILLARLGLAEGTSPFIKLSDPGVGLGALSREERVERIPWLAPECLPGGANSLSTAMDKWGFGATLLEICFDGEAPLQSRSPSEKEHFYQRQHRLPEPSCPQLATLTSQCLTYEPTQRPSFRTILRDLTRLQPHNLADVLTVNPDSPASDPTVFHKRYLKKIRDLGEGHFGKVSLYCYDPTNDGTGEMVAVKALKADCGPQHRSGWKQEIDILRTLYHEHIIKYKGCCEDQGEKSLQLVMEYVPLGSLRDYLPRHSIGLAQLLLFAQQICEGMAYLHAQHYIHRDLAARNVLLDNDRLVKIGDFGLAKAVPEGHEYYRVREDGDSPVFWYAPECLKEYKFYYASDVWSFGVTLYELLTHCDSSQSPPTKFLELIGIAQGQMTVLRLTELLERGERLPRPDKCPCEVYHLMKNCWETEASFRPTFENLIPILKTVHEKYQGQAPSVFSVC
pIC50: −log10 of the molar value.
experimentalEndpoint: pIC50

Worked cases, pIC50 given:
Could you tell me which pIC50 is on file for COc1cccc(CN2CCC(Nc3c(-c4cc[nH]n4)cnc4[nH]ccc34)CC2)c1 ?
< 5.00

What would you report for N#Cc1cccc(CN2CCC(Nc3c(-c4cc[nH]c4)cnc4[nH]ccc34)CC2)c1 ?
< 5.00

Entry Clc1cccc(CN2CCC(Nc3c(-c4cn[nH]c4)cnc4[nH]ccc34)CC2)c1 please
< 5.00

Queued: N#Cc1ccccc1CN1CCC(Nc2c(-c3cn[nH]c3)cnc3[nH]ccc23)CC1
8.39

Could you do the same for N#Cc1ccccc1CN1CCC(Nc2c(-c3cc[nH]c3)cnc3[nH]ccc23)CC1 , please?
5.38

Continuing:
Recorded pIC50 for Clc1cccc(CN2CCC(Nc3c(-c4cc[nH]c4)cnc4[nH]ccc34)CC2)c1 , please?
< 5.00

Again, but for N#Cc1ccc(CN2CCC(Nc3c(-c4cn[nH]c4)cnc4[nH]ccc34)CC2)cc1
< 5.00

And what about the compound N#Cc1cccc(CN2CCC(Nc3c(-c4cn[nH]c4)cnc4[nH]ccc34)CC2)c1 ?
< 5.00

Now this one: Clc1ccc(CN2CCC(Nc3c(-c4cc[nH]c4)cnc4[nH]ccc34)CC2)cc1
< 5.00
